melting point values by entry

- Smiles Input: "O=C(NCSCc1ccccc1)c1ccccc1"
  melting point: "79 to 80 °C"
- Smiles Input: "ClCc1nc(-c2cccs2)no1"
  melting point: "59 to 60 °C"
- Smiles Input: "Cc1c(C(=O)Cl)oc2ccccc12"
  melting point: "70 to 74 °C"

From here, focus on the item given below.
Recorded result, "NNC(=O)c1ccc(I)cc1" , melting point: 173 to 175 °C

----------
This section presents compounds with their documented melting point values.

Here is how some compounds turned out for melting point.
- Compound: "N#Cc1cnn(-c2ccccc2)c1-n1cccc1"
  Meas Value: "81 to 83 °C"
- Compound: "CC(C)(C)OC(=O)n1cc(C(=O)O)c2cc(Br)ccc21"
  Meas Value: "206 to 209 °C"
- Compound: "O=C(NC(=S)Nc1ccccc1)c1ccccc1"
  Meas Value: "159 to 161 °C"
- Compound: "O=C(O)CCCc1ccc(Br)cc1"
  Meas Value: "67 to 69 °C"
- Compound: "COC=CC(=O)OC"
  Meas Value: "3 to 4 °C"

melting point reported for this compound CC(O)c1c(F)c(F)c(F)c(F)c1F (configuration not stated) : 34 to 37 °C

Short answer for "O=C(Cl)c1cccc2c1OCCO2" : melting point was 98 to 99 °C

Form: compound = O=C(O)C(F)c1ccccc1 (configuration not stated) ; melting point = 82 to 85 °C

So, "NC(=O)c1ccc(C(F)(F)F)nc1O" ? Its melting point was 220 to 223 °C

According to the records, this compound "COc1ccc(C(=O)C=Cc2ccccc2)c(O)c1" displays melting point of 106 to 108 °C

Lab note: measured melting point of "Cc1ccccc1/C=C(\C#N)c1nc2ccccc2[nH]1" was 210 to 211 °C

Entry "O=Cc1ccc(N2CCOCC2)c([N+](=O)[O-])c1" ; melting point = 53 to 55 °C

Input "COc1ccc(C(=O)Nc2ccc(-c3ccc4nn(-c5ccccc5)nc4c3)cc2)cc1" . Output melting point: 240 to 243 °C

Recorded melting point (compound "CCOC(=O)[C@H](Cc1ccc(O)cc1)NC(=O)c1ccccc1" ): 118 to 121 °C

For this compound ( CC1(C)C(=O)OC2=C(CC3C4CC=C5CC(O)CCC5(C)C4CCC23C)C1c1ccccc1 (configuration not stated) ), measured melting point is 230 to 235 °C

Reported melting point for "O=[N+]([O-])c1cccc2scc(Br)c12" was 120 to 122 °C

Given item NC(Cc1c[nH]c2ccc(Br)cc12)C(=O)O (racemic) , the value recorded as its melting point is 261 to 267 °C

Origin of values: a melting point compilation (Tetko et al.)
